- test.system: human Werner helicase (WRN, Uniprot Q14191, amino acids 517-1235 with L1074F point mutation; WRN-BV08) (Homo sapiens, UniProt Q14191, L1074F)
- Construct: Uniprot Q14191, amino acids 517-1235 with L1074F point mutation; 8xHis (C, cleaved yes); TEV cleavage site (ENLYFQG) (C, cleaved yes)
- Sequence (Q14191 with tags, fused parts or gaps L1074F): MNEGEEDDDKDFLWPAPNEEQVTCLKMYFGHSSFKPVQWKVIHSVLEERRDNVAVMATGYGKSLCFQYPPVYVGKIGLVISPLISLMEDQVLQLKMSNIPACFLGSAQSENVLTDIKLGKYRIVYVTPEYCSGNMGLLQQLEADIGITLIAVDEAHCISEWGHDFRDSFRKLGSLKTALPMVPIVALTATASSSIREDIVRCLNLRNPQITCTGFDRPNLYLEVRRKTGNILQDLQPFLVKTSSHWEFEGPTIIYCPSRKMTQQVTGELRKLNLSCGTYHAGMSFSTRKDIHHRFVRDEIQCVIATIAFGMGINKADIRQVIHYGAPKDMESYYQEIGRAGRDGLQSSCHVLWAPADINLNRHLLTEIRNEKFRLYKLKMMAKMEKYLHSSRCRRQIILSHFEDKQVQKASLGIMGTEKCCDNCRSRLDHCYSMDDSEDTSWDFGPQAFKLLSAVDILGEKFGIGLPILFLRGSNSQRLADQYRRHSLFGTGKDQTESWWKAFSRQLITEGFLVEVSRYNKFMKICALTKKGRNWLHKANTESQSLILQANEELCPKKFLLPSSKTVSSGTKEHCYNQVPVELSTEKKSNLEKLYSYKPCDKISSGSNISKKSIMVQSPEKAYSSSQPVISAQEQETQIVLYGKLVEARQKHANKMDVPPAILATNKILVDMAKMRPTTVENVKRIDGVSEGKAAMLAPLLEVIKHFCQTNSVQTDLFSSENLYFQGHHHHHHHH
- protocol.notes: WRN (BV08) ADP-Glo assay
- test.context: WRN-BV08 (aa 517-1235, L1074F); read-out: ADP-Glo_hWRN_IC50
pIC50: −log10 of the molar value.
I'd appreciate it if you could supply pIC50 values for the items below.

CCc1c(N2CCN(C(=O)c3c(O)ccc4ncoc34)CC2)c(=O)n2nc(-c3ccnc(OC)c3)nc2n1CC(=O)NC12C3C4C1C1C2C3C41C(F)(F)F (stereo not drawn) : 7.30 to 8.30
CCc1c(N2CCN(C(=O)c3c(O)ccc4ncoc34)CC2)c(=O)n2nc(-c3ccnc(OC)c3)nc2n1CC(=O)NC12CC(CCF)(C1)C2 : 7.30 to 8.30
CCc1c(N2CCN(C(=O)c3ncnc(C)c3O)[C@H]3CC[C@@H]32)c(=O)c2nn(-c3ccnc(OC)c3)cc2n1CC(=O)NC12CC(C3CC3)(C1)C2 : 7.30 to 8.30
CCc1c(N2CCN(C(=O)c3c(O)c(F)cc4ncoc34)[C@H]3CC[C@@H]32)c(=O)c2nn(C3=CCOCC3)nc2n1CC(=O)NC12CC(C3CC3)(C1)C2 : 7.30 to 8.30
CCc1c(N2CCN(C(=O)c3cnn(C)c3)CC2)c(=O)n2nc(C3=CCOCC3)nc2n1CC(=O)NC1Cc2ccc(F)cc2C1 (stereo not drawn) : 6.30 to 7.00

## Input Returns the measured pIC50 for the input molecule. Input: CCc1c(N2CCN(C(=O)c3ncccc3C(=O)O)[C@H]3CC[C@@H]32)c(=O)c2nn(-c3ccnc(OC)c3)nc2n1CC(=O)NC12CC(C(C)C)(C1)C2
## Output 7.30 to 8.30
